target: HLA-A*02:12; assay: IEDB peptide-MHC binding, purified MHC/competitive/fluorescence; filed as Kd, often an IC50 or EC50 that approximates it; bounds were set here for any values at or beyond the usual limits of such assays; details: source organism: Rickettsia sibirica 246
measured metric: Kd

Give Kd for YLKKLDDFY
≥ 20 µM

----------
target: HLA-A*25:01; test: IEDB peptide-MHC binding, purified MHC/competitive/fluorescence; bounds were set here for any values at or beyond the usual limits of such assays; conditions: source organism: Homo sapiens
measured metric: IC50 (nM)
Report the value in nM with no unit label.

Give IC50 for MVRVLTVIKEY
1290

----------
biological target: HLA-A*01:01; assay: IEDB peptide-MHC binding, purified MHC/direct/fluorescence; filed as Kd, often an IC50 or EC50 that approximates it; bounds were set here for any values at or beyond the usual limits of such assays; details: source organism: Listeria monocytogenes
pKd: −log10 of the molar value.
measured metric: pKd

Give pKd for EIEIEKNKK
≤ 4.70

----------
target: HLA-A*02:11; assay: IEDB peptide-MHC binding, purified MHC/competitive/fluorescence; filed as Kd, often an IC50 or EC50 that approximates it; bounds were set here for any values at or beyond the usual limits of such assays; settings: source organism: Escherichia coli 536
measured metric: Kd

Under HLA-A*02:11: report Kd of QTDNDIWFW .
≥ 20 µM

----------
Entries and their pKd
target: HLA-A*11:01; assay: IEDB peptide-MHC binding, purified MHC/direct/fluorescence; filed as Kd, often an IC50 or EC50 that approximates it; bounds were set here for any values at or beyond the usual limits of such assays; conditions: source organism: Vibrio vulnificus
pKd: −log10 of the molar value.

   sequence_data  measured_metric  result
0      NGYRWQHQI              pKd  ≤ 4.70

Let us move to another entry and its pKd.
Under HLA-A*11:01: report pKd of GSEVPGFCH .
≤ 4.70

----------
target: HLA-B*40:02; test: IEDB peptide-MHC binding, purified MHC/competitive/radioactivity; filed as Kd, often an IC50 or EC50 that approximates it; bounds were set here for any values at or beyond the usual limits of such assays; conditions: source organism: SARS coronavirus Tor2
measured metric: Kd (nM)
Report the value in nM with no unit label.

# annotated cases, reported Kd shown
   sequence_data  measured_metric  units_of_measure  result_number
0      REVKTIKVF               Kd                nM           54.3
1      AEVQIDRLI               Kd                nM           92.4
2     VEFLKDAWEI               Kd                nM           77.4
3     RERVNINIVG               Kd                nM            143
4     EEAALCTFLL               Kd                nM           17.7

Give Kd for NEYRQYLDAY
632

Give Kd for LEDFKPRSQM
21.7

Give Kd for YEGNSPFHPL
12.2

Give Kd for SEYDYVIFT
34

----------
target: HLA-B*27:03; assay: IEDB peptide-MHC binding, purified MHC/competitive/fluorescence; filed as Kd, often an IC50 or EC50 that approximates it; bounds were set here for any values at or beyond the usual limits of such assays; conditions: source organism: Four Corners hantavirus
pKd: −log10 of the molar value.
measured metric: pKd

Under HLA-B*27:03: report pKd of KLKKKSAFY .
≤ 4.70

----------
biological target: HLA-A*02:19; assay: IEDB peptide-MHC binding, purified MHC/competitive/fluorescence; filed as Kd, often an IC50 or EC50 that approximates it; bounds were set here for any values at or beyond the usual limits of such assays; conditions: source organism: Listeria monocytogenes J0161
pKd: −log10 of the molar value.
measured metric: pKd

Give pKd for YNAKRIETV
≤ 4.70

----------
target: HLA-A*30:02; experiment: IEDB peptide-MHC binding, purified MHC/competitive/radioactivity; filed as Kd, often an IC50 or EC50 that approximates it; bounds were set here for any values at or beyond the usual limits of such assays; details: source organism: Mammarenavirus choriomeningitidis
measured metric: pKd
Scale: pKd equals -log10([C]), with [C] in mol/L.

Give pKd for DTSNTGRAEL
5.14

----------
molecular target: HLA-B*08:01; assay: IEDB peptide-MHC binding, purified MHC/direct/fluorescence; filed as Kd, often an IC50 or EC50 that approximates it; bounds were set here for any values at or beyond the usual limits of such assays; details: source organism: Ravn virus - Ravn, Kenya, 1987
measured metric: Kd

Under HLA-B*08:01: report Kd of YHLGGIEGL .
≥ 20 µM

----------
biological target: HLA-A*26:01; assay: IEDB peptide-MHC binding, purified MHC/competitive/fluorescence; filed as Kd, often an IC50 or EC50 that approximates it; bounds were set here for any values at or beyond the usual limits of such assays; conditions: source organism: Four Corners hantavirus
measured metric: Kd

Give Kd for KLKKKSAFY
≥ 20 µM

----------
target: HLA-A*68:01; assay: IEDB peptide-MHC binding, purified MHC/competitive/radioactivity; filed as Kd, often an IC50 or EC50 that approximates it; bounds were set here for any values at or beyond the usual limits of such assays; settings: source organism: Vaccinia virus WR
measured metric: Kd (µM)
Report the value in µM with no unit label.

# annotated cases, reported Kd shown
>>> df
   sequence_data  measured_metric  result_number
0     YALINLVQYR               Kd         0.0218
1     IFMRDWNSKY               Kd           10.9
2      ISIIVLFQR               Kd        0.00326
3     KQYIVATLMK               Kd           1.34
4     SMRYQSLIPR               Kd         0.0202
5      VMNIERQDY               Kd         0.0532
6      FFTELENKK               Kd           3.36
7      GLCAHILLY               Kd            3.2

Under HLA-A*68:01: report Kd of YSGLTPEQK .
0.494

----------
Entries and their pKd
biological target: HLA-A*24:02; assay: IEDB peptide-MHC binding, purified MHC/competitive/radioactivity; filed as Kd, often an IC50 or EC50 that approximates it; bounds were set here for any values at or beyond the usual limits of such assays; conditions: source organism: SARS coronavirus Tor2
Scale: pKd equals -log10([C]), with [C] in mol/L.

# annotated cases, reported pKd shown
In [3]: df
Out[3]:
   sequence_data  result_number
0      FFVYENAFL           5.04
1      LVSTQEFRY           4.90
2      AFIDTIKSL           4.99
3      AYSNRNRFL           7.04
4      LFARTRSMW           6.84

Give pKd for NYLRKRVMF
4.74

Give pKd for MWSFNPETNI
6.26

Give pKd for FFTYLCGFI
4.73

Give pKd for GYTMHANYIF
7.95

----------
biological target: HLA-A*69:01; experiment: IEDB peptide-MHC binding, purified MHC/direct/fluorescence; filed as Kd, often an IC50 or EC50 that approximates it; bounds were set here for any values at or beyond the usual limits of such assays; conditions: source organism: Shigella dysenteriae
measured metric: Kd

Give Kd for AEMRETHWL
≥ 20 µM

----------
molecular target: HLA-B*38:01; test: IEDB peptide-MHC binding, purified MHC/direct/fluorescence; filed as Kd, often an IC50 or EC50 that approximates it; bounds were set here for any values at or beyond the usual limits of such assays; details: source organism: Giardia lamblia ATCC 50803
pKd: −log10 of the molar value.
measured metric: pKd

Give pKd for ETESVNSNY
≤ 4.70

----------
target: HLA-B*15:01; experiment: IEDB peptide-MHC binding, purified MHC/direct/fluorescence; filed as Kd, often an IC50 or EC50 that approximates it; bounds were set here for any values at or beyond the usual limits of such assays; conditions: source organism: West Nile virus
pKd: −log10 of the molar value.
measured metric: pKd

Give pKd for TSDYINTSL
≤ 4.70

----------
molecular target: HLA-B*58:01; assay: IEDB peptide-MHC binding, purified MHC/direct/fluorescence; filed as Kd, often an IC50 or EC50 that approximates it; bounds were set here for any values at or beyond the usual limits of such assays; settings: source organism: Campylobacter jejuni
measured metric: Kd (nM)
Report the value in nM with no unit label.

Give Kd for KSNKIRGRM
192
